Listed below: switch fluorescence ratio values for each entry.
# Test system: ATP;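 further: ATP exposure 15 min at 22 °C before imaging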
# test.details: switch fluorescence ratio, 500 uM ATP over buffer (Cy3 cluster intensity, sum of 5 cycles each) (fold (ratio)); higher = stronger signal-on switching upon ATP binding; sequences stand for … in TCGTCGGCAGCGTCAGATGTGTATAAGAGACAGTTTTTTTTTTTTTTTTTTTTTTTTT…TC
# condition.parameters: aptamer strand: ATP DNA aptamer (quencher-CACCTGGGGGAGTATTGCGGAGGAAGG + anchor), 100 nM annealed; ATP concentration: 500 uM
API note: the answer field is a bare number with no unit suffix.

record_sequence=GTTTCTGGAT recorded_measurement=0.98
record_sequence=GAATCATATG recorded_measurement=0.977
record_sequence=AATGTTTTCT recorded_measurement=1.05

Could you now look at the following sequence, please?
For this sequence ( "GGCGTAAAAG" ), measured switch fluorescence ratio is 1.01
